# Test system: SJSA-1 cells
# protocol details: Cell lysis by peptidomimetic macrocycles (LDH release)
# Assay type: cell-based
# measurement context: 6.25 uM, 1 h at 37C
Where a SMILES comes first, the peptide text is derived from it. Bridges are numbered along the chain shown (N, C = ends). [ ]: non-standard residue; d: D form. Phe(4-COOH) = N[C@@H](Cc1ccc(C(=O)O)cc1)C(=O)O; 2Nal = N[C@@H](Cc1ccc2ccccc2c1)C(=O)O; R8 = C=CCCCCCC[C@@](C)(N)C(=O)O; Cba = N[C@@H](CC1CCC1)C(=O)O; S5 = C=CCCC[C@](C)(N)C(=O)O; Nle = CCCC[C@H](N)C(=O)O; Ac3c = NC1(C(=O)O)CC1
reported property: 6.25 uM % Lysed cells (1 h LDH) (%)
Return type: number; implicit unit %.

Param item = CC[C@H](C)[C@H](NC(=O)[C@H](C)NC(=O)[C@H](C)NC(=O)[C@]1(C)CCCC=CCCCCCC[C@@](C)(NC(=O)[C@H](Cc2ccccc2)NC(=O)[C@@H](NC(=O)[C@H](CC(C)C)NC(C)=O)[C@@H](C)O)C(=O)N[C@@H](C)C(=O)N[C@@H](Cc2ccc(O)cc2)C(=O)N[C@@H](Cc2c[nH]c3ccccc23)C(=O)N[C@@H](C)C(=O)N[C@@H](CCC(N)=O)C(=O)N[C@@H](CC(C)C)C(=O)N1)C(=O)N[C@H](CC(C)C)C(N)=O (single isomer, unassigned) [compound 82] ; retrieve measured 6.25 uM % Lysed cells (1 h LDH).
0

Any idea what 6.25 uM % Lysed cells (1 h LDH) was measured for CC(=O)N[C@@H](CC(C)C)C(=O)N[C@H](C(=O)N[C@@H](Cc1ccccc1)C(=O)N[C@]1(C)CCCCCCC=CCCC[C@@](C)(C(=O)N[C@@H](CO)C(=O)N[C@H](C(=O)N[C@@H](CO)C(N)=O)C(C)C)NC(=O)[C@H](CC(C)C)NC(=O)[C@H](CCC(N)=O)NC(=O)[C@H](C)NC(=O)[C@H](Cc2c[nH]c3ccccc23)NC(=O)[C@H](Cc2ccc(O)cc2)NC(=O)[C@H](C(C)C)NC1=O)[C@@H](C)O (single isomer, unassigned) [compound 142] ?
1

Would you kindly share the measured 6.25 uM % Lysed cells (1 h LDH) for CC[C@H](C)[C@H](NC(=O)[C@H](C)NC(=O)[C@H](C)NC(=O)[C@]1(C)CCCC=CCCCCCC[C@@](C)(NC(=O)[C@H](Cc2ccccc2)NC(C)=O)C(=O)N[C@@H](C)C(=O)N[C@@H](Cc2ccc(O)cc2)C(=O)N[C@@H](Cc2c[nH]c3ccccc23)C(=O)N[C@@H](CCC(=O)O)C(=O)NC2(CC2)C(=O)N[C@@H](CC(C)C)C(=O)N1)C(N)=O [compound 19] (Ac-F[R8]AYWE[Ac3c]L[S5]AAI-NH2; staple 2-9) ?
2

Which 6.25 uM % Lysed cells (1 h LDH) value is on record for CC[C@H](C)[C@H](NC(=O)[C@H](C)NC(=O)[C@H](C)NC(=O)[C@]1(C)CCCC=CCCCCCC[C@@](C)(NC(=O)[C@H](Cc2ccccc2)NC(=O)[C@@H](NC(=O)[C@H](CC(C)C)NC(C)=O)[C@@H](C)O)C(=O)N[C@@H](CCC(=O)O)C(=O)N[C@@H](Cc2ccc(O)cc2)C(=O)N[C@@H](Cc2c[nH]c3ccccc23)C(=O)N[C@@H](C)C(=O)N[C@@H](CCC(N)=O)C(=O)N[C@@H](CC2CCC2)C(=O)N1)C(=O)N[C@H](C)C(N)=O [compound 247] (Ac-LTF[R8]EYWAQ[Cba][S5]AAI[dA]-NH2; staple 4-11) ?
0

Using the record for CCCC[C@H](NC(=O)[C@H](C)NC(=O)[C@H](CO)NC(=O)[C@]1(C)CCCC=CCCCCCC[C@@](C)(NC(=O)[C@H](Cc2ccccc2)NC(=O)[C@@H](NC(=O)[C@H](CC(C)C)NC(C)=O)[C@@H](C)O)C(=O)N[C@@H](CCC(=O)O)C(=O)N[C@@H](Cc2ccc(C(=O)O)cc2)C(=O)N[C@@H](Cc2c[nH]c3ccccc23)C(=O)N[C@@H](C)C(=O)N[C@@H](CCC(N)=O)C(=O)N[C@@H](CC2CCC2)C(=O)N1)C(=O)N[C@@H](C)C(N)=O [compound 244] (Ac-LTF[R8]E[Phe(4-COOH)]WAQ[Cba][S5]SA[Nle]A-NH2; staple 4-11) , report its 6.25 uM % Lysed cells (1 h LDH).
0

// lookup 6.25 uM % Lysed cells (1 h LDH) for CC(=O)N[C@@H](CC(C)C)C(=O)N[C@H](C(=O)N[C@@H](Cc1ccccc1)C(=O)N[C@]1(C)CCCCCCC=CCCC[C@@](C)(C(=O)N[C@@H](C)C(=O)N[C@@H](C)C(=O)N[C@@H](C)C(=O)N[C@@H](C)C(=O)N[C@@H](C)C(=O)N[C@H](C)C(N)=O)NC(=O)[C@H](CC2CCC2)NC(=O)[C@H](CCC(N)=O)NC(=O)[C@H](C)NC(=O)[C@H](Cc2c[nH]c3ccccc23)NC(=O)[C@H](Cc2ccc(O)cc2)NC(=O)[C@H](CCC(=O)O)NC1=O)[C@@H](C)O (single isomer, unassigned) [compound 347]
0

Entry CC(=O)N[C@@H](CC(C)C)C(=O)N[C@H](C(=O)N[C@@H](Cc1ccccc1)C(=O)N[C@]1(C)CCCCCCC=CCCC[C@@](C)(C(=O)N[C@@H](C)C(=O)N[C@@H](C)C(=O)N[C@@H](C)C(=O)N[C@@H](C)C(=O)N[C@@H](C)C(=O)N[C@@H](C)C(=O)N[C@H](C)C(N)=O)NC(=O)[C@H](CC(C)C)NC(=O)[C@H](CCC(N)=O)NC(=O)[C@H](C)NC(=O)[C@H](Cc2c[nH]c3ccccc23)NC(=O)[C@H](Cc2ccc(O)cc2)NC(=O)[C@H](C)NC1=O)[C@@H](C)O (single isomer, unassigned) [compound 316] has what 6.25 uM % Lysed cells (1 h LDH)?
0

Name the reported 6.25 uM % Lysed cells (1 h LDH) value associated with the compound CC(=O)N[C@@H](CC(C)C)C(=O)N[C@H](C(=O)N[C@@H](Cc1ccccc1)C(=O)N[C@]1(C)CCCCCCC=CCCC[C@@](C)(C(=O)N[C@@H](CO)C(=O)N[C@@H](C)C(=O)N[C@@H](C)C(N)=O)NC(=O)[C@H](CC2CCC2)NC(=O)[C@H](CCC(N)=O)NC(=O)[C@H](C)NC(=O)[C@H](Cc2ccc3ccccc3c2)NC(=O)[C@H](Cc2ccc(O)cc2)NC(=O)[C@H](CCC(=O)O)NC1=O)[C@@H](C)O [compound 254] (Ac-LTF[R8]EY[2Nal]AQ[Cba][S5]SAA-NH2; staple 4-11)
11

###

# target system: MDMX (Homo sapiens, UniProt O15151)
# Sequence (O15151 1-125): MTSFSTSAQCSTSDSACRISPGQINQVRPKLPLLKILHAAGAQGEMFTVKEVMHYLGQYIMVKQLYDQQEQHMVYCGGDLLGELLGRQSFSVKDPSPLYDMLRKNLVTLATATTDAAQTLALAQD
# protocol details: Competitive fluorescence polarization assay for MDMX
# Assay type: binding
# measurement context: competitive FP assay, read-out: IC50 (MDMX)
Where a SMILES comes first, the peptide text is derived from it. Bridges are numbered along the chain shown (N, C = ends). [ ]: non-standard residue; d: D form. R8 = C=CCCCCCC[C@@](C)(N)C(=O)O; Cba = N[C@@H](CC1CCC1)C(=O)O; S5 = C=CCCC[C@](C)(N)C(=O)O; Nle = CCCC[C@H](N)C(=O)O
reported property: IC50

Bench note: what IC50 did CCCC[C@H](NC(=O)[C@H](Cc1c[nH]c2ccccc12)NC(=O)[C@H](C)NC(=O)[C@]1(C)CCCC=CCCCCCC[C@@](C)(NC(=O)[C@H](Cc2ccccc2)NC(=O)[C@@H](NC(=O)[C@H](CC(C)C)NC(C)=O)[C@@H](C)O)C(=O)N[C@@H](CCC(=O)O)C(=O)N[C@@H](Cc2ccc(O)cc2)C(=O)N[C@@H](Cc2c[nH]c3ccccc23)C(=O)N[C@@H](C)C(=O)N[C@@H](CCC(N)=O)C(=O)N[C@@H](CC2CCC2)C(=O)N1)C(=O)N[C@H](C)C(N)=O [compound 271] (Ac-LTF[R8]EYWAQ[Cba][S5]AW[Nle][dA]-NH2; staple 4-11) show?
10 to 100 nM

Which value of IC50 has been reported for CC(=O)N[C@@H](CC(C)C)C(=O)N[C@H](C(=O)N[C@@H](Cc1ccccc1)C(=O)N[C@]1(C)CCCCCCC=CCCC[C@@](C)(C(=O)N[C@@H](CO)C(=O)N[C@@H](C)C(=O)N[C@@H](C)C(N)=O)NC(=O)[C@H](CC2CCCCC2)NC(=O)[C@H](CCC(N)=O)NC(=O)[C@H](C)NC(=O)[C@H](Cc2c[nH]c3ccccc23)NC(=O)[C@H](Cc2ccc(O)cc2)NC(=O)[C@H](CCC(=O)O)NC1=O)[C@@H](C)O (single isomer, unassigned) in the records?
100 to 1000 nM

Which IC50 is listed for CCCC[C@H](NC(=O)[C@H](C)NC(=O)[C@H](CO)NC(=O)[C@]1(C)CCCC=CCCCCCC[C@@](C)(NC(=O)[C@H](Cc2ccccc2)NC(=O)[C@@H](NC(=O)[C@H](CC(C)C)NC(C)=O)[C@@H](C)O)C(=O)N[C@@H](CCC(=O)O)C(=O)N[C@@H](Cc2ccc(C(=O)O)cc2)C(=O)N[C@@H](Cc2c[nH]c3cc(Cl)ccc23)C(=O)N[C@@H](C)C(=O)N[C@@H](CCC(N)=O)C(=O)N[C@@H](CC2CCC2)C(=O)N1)C(=O)N[C@@H](C)C(N)=O (single isomer, unassigned) ?
10 to 100 nM

Which value of IC50 has been reported for CCCC[C@H](NC(=O)[C@H](Cc1c[nH]c2ccccc12)NC(=O)[C@H](C)NC(=O)[C@]1(C)CCCC=CCCCCCC[C@@](C)(NC(=O)[C@H](Cc2ccccc2)NC(=O)[C@@H](NC(=O)[C@H](CCC(=O)O)NC(C)=O)[C@@H](C)O)C(=O)N[C@@H](CCC(=O)O)C(=O)N[C@@H](Cc2ccc(O)cc2)C(=O)N[C@@H](Cc2c[nH]c3ccccc23)C(=O)N[C@@H](C)C(=O)N[C@@H](CCC(N)=O)C(=O)N[C@@H](CC2CCC2)C(=O)N1)C(=O)N[C@H](C)C(N)=O [compound 272] (Ac-ETF[R8]EYWAQ[Cba][S5]AW[Nle][dA]-NH2; staple 4-11) in the records?
10 to 100 nM
